assay: Toxicity against human MT2 cells; assay type: cell-based
OBSERVABLE: CC50 (µM)
Dear colleague, please return just the value in µM, with no unit written.

Query: // lookup CC50 for "Cc1ccc(C)n1-c1ccc(C(=O)O)c(O)c1"
Response: 2760

====

Each record here notes measured CC50.
assay: Cytotoxicity against human MT2 cells; assay type: cell-based; conditions: read-out: TC50 (the source's name)
Dear colleague, please return just the value in µg/mL, with no unit written.

* O=C(C[C@H]1C(=O)Nc2ccccc2-c2cccn21)OCc1ccccc1 | 10

Let us examine a further case.
Query: // lookup CC50 for "O=C1[C@H](Cc2ccc(O)cc2)n2cccc2-c2ccccc2N1CCc1ccc(O)cc1"
Response: 10

The reported measurements were obtained from ChEMBL document CHEMBL3608235.
